Test system: HL-60(TB) leukemia
MEASUREMENT PROTOCOL: NCI tumour cell line growth inhibition, 48 h; in the data active = GI50 below about 0.43 µM; inactive = the rest
# output must be one of true = active, false = inactive

Example entries and their recorded answers appear below.
                                   compound  qualitative_label
0  N#Cc1c(N)nc(N)nc1N[C@H](c1nc2c(F)ccc(Cl)c2c(=O)n1-c1cccnc1)C1CC1              false
1  COc1cc(-c2n/c(=C\c3c(O)[nH]c4cc(Cl)ccc34)cc3c2=Nc2ccccc2-3)cc(OC)c1OC              false
2  C[C@]12CC[C@H]3[C@@H](C[C@@H]4SC(Nc5ccccc5)=N[C@@]45CC(O)CC[C@]35C)[C@@H]1CCC2O (some centres undefined)              false
3  CC(=O)C1=C(C)N(C)C2(O)C=CC(=O)C3=C(O)c4ccccc4C(=O)C312 (centres undefined)              false
4  CN1CCN(Cc2ccc(NC(=O)c3cncc(C#Cc4cncc5nccnc45)c3)cc2C(F)(F)F)CC1               true

Request: Any idea what this test logged for "CN1CCN(c2nc(NCCCNc3ccnc4cc(Cl)ccc34)c3ccccc3n2)CC1" ?
Response: false

Request: Call for entry Cc1ccc(C(SCC(N)C(=O)O)(c2ccccc2)c2ccccc2)cc1 (centres undefined) :
Response: true

Request: Record request — test call for "O=[n+]1c2ccccc2n([O-])c2cc(Cl)ccc21"
Response: false

Request: Please state the recorded outcome for this compound: "Cc1cc(C(=O)O)c(C)n1-c1cccc(C(=O)O)c1"
Response: false

###

System: A498 renal
MEASUREMENT PROTOCOL: NCI tumour cell line growth inhibition, 48 h; in the data active = GI50 below about 0.43 µM; inactive = the rest
Choose one outcome from this list and give only that: active, inactive

In [3]: df
Out[3]:
                                   compound  qualitative_label
0  Cc1ccc(C2=C(c3ccccc3)C(c3ccccc3)Oc3ccc(C)cc32)cc1 (stereo unspecified)           inactive
1  CN(C)CC(C(=O)Cc1ccccc1)c1ccccc1 (stereo unspecified)           inactive
2  COc1cc(C2C3=C(COC3=O)Nc3c2ccc2c3CCCC2)cc2c1OCO2 (stereo unspecified)             active

Request: What is the recorded call for this compound in the test? "CC(C)n1nc(-c2ccc3oc(N)nc3c2)c2c(N)ncnc21"
Response: active

Request: Could you kindly confirm the outcome this assay logged for COC1C(OC(=O)/C=C/C=C/C=C/C=C\C(=O)O)CCC2(CO2)C1C1(C)OC1CC=C(C)C (stereo unspecified) ?
Response: inactive

###

Test system: SK-OV-3 ovarian
MEASUREMENT PROTOCOL: NCI tumour cell line growth inhibition, 48 h
Where a SMILES comes first, the peptide text is derived from it. Residues, ends and D or L forms follow the SMILES beside them. *: point of attachment. Boc = CC(C)(C)OC(=O)*; OBn = c1ccc(CO*)cc1
MEASURE NAME: TGI

Request: Determine its reported TGI: CCC(C)C1NC(=O)C2CCCN2C(=O)CNC(=O)C(C)NC(=O)C(Cc2ccccc2)NC(=O)C(C(C)C)NC1=O (stereo not given) (cyclo(GPIVFA); configuration not given here)
Response: > 100 µM

Request: Tell me measured TGI for Nc1nc(N)c2c(n1)NC(c1ccccc1)C1CCc3ccccc3C1=N2 (stereo not given) please.
Response: 22.7 µM

Request: Provide only the value of recorded TGI for "CCCCNC(=O)c1cc(NCc2cc(O)ccc2O)ccc1O"
Response: > 100 µM

Request: Query TGI for "CCN(CC)/[N+]([O-])=N/OCOC(C)=O"
Response: > 100 µM

Request: Quickly give me recorded TGI for "N#Cc1c(N)nc(N)nc1N[C@H](c1nc2c(F)ccc(Cl)c2c(=O)n1-c1cccnc1)C1CC1"
Response: 11.4 µM

Request: Annotate the compound "CC1(C)C(=O)/C=C\C(=O)C(C)(C)C(=O)/C=C\C(=O)C(C)(C)C(=O)/C=C\C(=O)C(C)(C)C(=O)/C=C\C1=O" with its measured TGI.
Response: > 96.1 µM

Request: Given the compound Cc1cccc(N2C(=O)C(=O)C(c3nc4ccccc4s3)/C(=N/NC(=S)NN)C2=O)c1C (stereo not given) , write its reported TGI.
Response: > 100 µM

Request: Fill in TGI for record CN(C)CC(C(=O)Cc1ccccc1)c1ccccc1 (stereo not given)
Response: 36.2 µM

Request: In one line, give reported TGI of the entry "CCCCC(=O)N/N=C/c1c(O)ccc2ccccc12" .
Response: > 100 µM

Request: Supply measured TGI of CC(C)CC(NC(=O)OC(C)(C)C)C(=O)N1CCCC1C(=O)OCc1ccccc1 (stereo not drawn) (Boc-Leu-Pro-OBn; configuration not given here) in your reply.
Response: > 100 µM

Request: Determine from records and report TGI for "CN(C)C=NCCN1CCOCC1"
Response: > 100 µM

Request: Please list TGI recorded for the compound "N#Cc1c(O)c(N=Nc2ccc(Cl)cc2)c(=O)n2c1[nH]c1ccccc12"
Response: > 100 µM

Request: Note TGI for the compound shown: "CN1CCN(Cc2ccc(NC(=O)c3cncc(C#Cc4cncc5nccnc45)c3)cc2C(F)(F)F)CC1"
Response: 13 µM

Request: Please look at this compound and report its TGI: "COc1ccc(/C=C2\Sc3nnc(CNc4ccc(Cl)cc4)n3N=C2c2cc(F)c(Cl)cc2Cl)cc1OC"
Response: > 100 µM

Request: In one line, give reported TGI of the entry "CC(/C=C/c1ccccc1)=N\NC(N)=S" .
Response: > 100 µM

Request: Identify the reported TGI for the following entry. "COc1cc2ncnc(Nc3ccc4c(cnn4Cc4ccccc4)c3)c2cc1OC"
Response: > 25 µM

Request: Please report the measured TGI for C[C@@H]1C2=CC[C@@]3(C)C(CCC3[C@H](C)[C@H]3C[C@@]4(C)O[C@@](c5cccnc5)(O3)OC4(C)C)[C@@H]2C2OC2[C@@]12CCC(=O)O2 (stereo not given in full)
Response: > 100 µM

Request: // fetch TGI given entry "CCCCNC(=O)Oc1ccc(/C(=C(/C)Cc2ccc(OC)cc2)c2ccc(OCCN3CCCC3)cc2)cc1"
Response: 20.4 µM

Request: Using known records, supply TGI for "CN(C)c1ccc(-c2ccc(N(C)C)c3n[se]nc23)c2n[se]nc12"
Response: > 100 µM

Request: Please supply the value of reported TGI for the item "O=c1c2cc(I)ccc2nc(SCc2n[nH]c(=S)o2)n1Cc1ccccc1"
Response: 62.3 µM

###

Tested on: 786-0 renal
MEASUREMENT PROTOCOL: NCI tumour cell line growth inhibition, 48 h
Let's look at some compounds and their measured TGI.

COMPOUND	TGI
Nc1c(N2CCOCC2)c(=O)nc2[nH]/c(=C\c3ccccc3)c(=O)n12	> 100 µM
C[C@@H]1C2=CC[C@@]3(C)C(CCC3[C@H](C)[C@H]3C[C@@]4(C)O[C@@](c5cccnc5)(O3)OC4(C)C)[C@@H]2C2OC2[C@@]12CCC(=O)O2 (stereo not given in full)	> 100 µM
CC1(C)C=N[N+]2(C)C3C=CC(CC3)C12 (stereo not given)	> 100 µM
COC(=O)[C@]1(c2cc3ccccc3[nH]2)CC2CN(CC(=O)N(C)OC)C1CC2(OC)OC (stereo not given in full)	57.7 µM
CC(C)CC(Nc1c(O)ccc2ccccc12)C(=O)O (stereo not given)	> 100 µM
Oc1cccc2cc(Br)cnc12	> 100 µM

Then this compound:
Request: Identify measured TGI associated with "O=S1(=O)CCCS(=O)(=O)C(c2ccccc2)=C1c1ccccc1"
Response: > 100 µM

###

Test system: CAKI-1 renal
MEASUREMENT PROTOCOL: NCI tumour cell line growth inhibition, 48 h
MEASURE NAME: GI50

Solved entries:
>>> print(df.to_string())
                                   compound  reported_measurement
0         N=C(N)c1ccc(-c2ccc(-c3cccs3)s2)s1               1570 nM
1  Cc1ccc(C2=C(c3ccccc3)C(c3ccccc3)Oc3ccc(C)cc32)cc1 (stereo not given)              12700 nM
2  CCN(CC)CCN(Cc1ccc(F)cc1)c1ccc(CO)c(Cl)c1               1850 nM

Request: Fill in: GI50 on CAKI-1 renal, entry "COc1cc2ncnc(Nc3ccc4c(cnn4Cc4ccccc4)c3)c2cc1OC"
Response: 385 nM

Request: // output GI50; input COC(=O)/C=C1/SC(N2N=C(c3cccs3)CC2c2ccc(F)cc2)=NC1=O (stereo not given) ; system CAKI-1 renal
Response: 2820 nM

Request: Please report GI50 with CAKI-1 renal for item "c1cncc(C2Nc3cccc4cccc(c34)N2)c1" .
Response: 48700 nM

Request: Would you please give the reported GI50 of Cc1ccc(C2=C(c3ccc(C)cc3)C3(c4ccc(C)cc4)C4C(=O)c5ccccc5C(=O)C4C2(c2ccc(C)cc2)S3=O)cc1 (stereo not given) with CAKI-1 renal?
Response: > 100000 nM

Request: Write down the reported GI50 (system: CAKI-1 renal) of "O=S1(=O)CS(=O)(=O)OCCO1"
Response: 33200 nM

Request: Look up and report measured GI50 (CAKI-1 renal) for the following compound: "COc1cc(-c2n/c(=C\c3c(O)[nH]c4cc(Cl)ccc34)cc3c2=Nc2ccccc2-3)cc(OC)c1OC"
Response: 10900 nM

Request: // fetch GI50; item: Cc1ccc(C(SCC(N)C(=O)O)(c2ccccc2)c2ccccc2)cc1 (stereo not given) ; system: CAKI-1 renal
Response: 151 nM
